Assign growth to each entry below.
Test system: SN12C renal
assay_overview: NCI-60 one-dose screen, 48 h (100 = growth as untreated, 0 = no growth, -100 = all killed)
protocol_conditions: 10 µM unless noted
Protocol: Growth inhibition of the SN12C human tumor cell line is measured as a screen for anti-cancer activity. Cells are grown in 96 well plates and exposed to the test compound for 48 hours. Compounds are tested at a single concentration, which is 10^-5 M for most compounds. The reported endpoint is percent growth (GI% or GIPRCNT), where numbers from 0 - 100% represent growth inhibition, and numbers from -100% - 0 represent cell death. For example, a value of 40 represents 60% growth inhibition. […]
The panel holds about 83,000 compounds, 20% with a hit somewhere; the sample as a whole holds those more often.
Give the quantity in %, number only.

stdin: Reported growth for "Cn1ccnc1C(=O)/C=C/c1ccc(CNC(=O)c2ccc(Cl)cc2)cc1" : what is it?
stdout: 17.3

stdin: Reported growth for "CN1CCN(Cc2ccc(NC(=O)c3cncc(C#Cc4cnc5ccc(NCCCO)nn45)c3)cc2C(F)(F)F)CC1" : what is it?
stdout: 15.6

stdin: Reported growth for "COc1ccc2[nH]cc(/C=N/Nc3nc4ccccc4s3)c2c1" : what is it?
stdout: 69.6

stdin: Reported growth for "Cc1ccc(NC(=O)c2ccc(CN3CCOCC3)c(C(F)(F)F)c2)cc1Oc1ccc(-c2[nH]nc3ncnc(N)c23)cc1" : what is it?
stdout: 82.3

stdin: Reported growth for Cc1cc(C(NC(=O)CCCCCNc2cccc3c2C(=O)N(C2CCC(=O)NC2=O)C3=O)c2ccc3c(c2)OC(F)(F)O3)c(O)c2ncccc12 (configuration not stated) : what is it?
stdout: 49.9

stdin: Reported growth for CCNC(=O)N1CCc2cc(OC)c(OCCc3ccc(OC)cc3)cc2C1c1ccc(OC)cc1C (configuration not stated) : what is it?
stdout: 30.2

stdin: Reported growth for "O=C(CCC(=O)N1CCOCC1)OCCCCCCSc1ccc([N+](=O)[O-])c2nonc12" : what is it?
stdout: -74.7

stdin: Reported growth for "C#CCOC(=O)[C@@H]1CCCN1CC#C" : what is it?
stdout: 92.6

stdin: Reported growth for CCO/C=N/C1=C(C#N)C(c2ccc(OC)cc2)c2sc3c(C)cccc3c2O1 (configuration not stated) : what is it?
stdout: 25.2

stdin: Reported growth for "N=c1c2cc(-c3ccccc3)oc2ncn1/N=C/c1ccc(Cl)cc1" : what is it?
stdout: 62.6

stdin: Reported growth for "Cc1nn(-c2ccccc2)c2ncnc(N/N=C/c3cccc(O)c3)c12" : what is it?
stdout: 44.4

stdin: Reported growth for "Cc1ccc(CSc2nc(-c3ccc(Cl)cc3)c(C#N)c(N3CCOCC3)n2)cc1" : what is it?
stdout: 98.1

stdin: Reported growth for "COc1cccc2c1CN(C(=O)c1ccc(O)c(C(=O)N3Cc4ccc(OCCC[P+](c5ccccc5)(c5ccccc5)c5ccccc5)cc4C3)c1)C2" : what is it?
stdout: 90.4

stdin: Reported growth for "O=C(CCn1c[n+](CC(=O)c2ccc(-c3ccccc3)cc2)c2ccccc21)Nc1cccc2cccnc12" : what is it?
stdout: 53.6

stdin: Reported growth for CC(O)c1cc2ccccc2c(=O)o1 (configuration not stated) : what is it?
stdout: 101

stdin: Reported growth for CCNC(=O)N1CCc2cc(OC)c(OCCc3ccc(OC)cc3)cc2C1c1ccc(Cl)cc1C (configuration not stated) : what is it?
stdout: 18.6

stdin: Reported growth for Cc1ccc2sc3c(c2c1)OC(N)=C(C#N)C3c1ccc(Cl)cc1 (configuration not stated) : what is it?
stdout: 93.3

stdin: Reported growth for "CNC(=O)c1cc(-c2ccc(NC(=S)Nc3cc(C(F)(F)F)cc(C(F)(F)F)c3)cc2)nc2cccnc12" : what is it?
stdout: 86.7

stdin: Reported growth for "Cc1ccc(-c2cc3nc(C(Cl)Cl)nc(-c4ccco4)n3n2)cc1" : what is it?
stdout: 66.4

stdin: Reported growth for "CCOC(=O)c1c(N)c(C#N)cn1-c1cc(OC)c(OC)c(OC)c1" : what is it?
stdout: 101

stdin: Reported growth for "NS(=O)(=O)c1ccc(-n2cc(CN3CCNCC3)nn2)cc1" : what is it?
stdout: 110

stdin: Reported growth for "COc1cc(/C=C2\C(=O)Nc3ccccc32)ccc1OCc1ccc(F)cc1" : what is it?
stdout: 100

stdin: Reported growth for CCNC(=O)N1CCc2cc(OC)c(OCCc3ccc(OC)cc3)cc2C1c1ccc([N+](=O)[O-])cc1C (configuration not stated) : what is it?
stdout: 44

stdin: Reported growth for "COc1cc(Cn2cc3c(c2)-c2onc(CN4CCOCC4)c2CC3)cc(OC)c1OC" : what is it?
stdout: 95.5

stdin: Reported growth for CC(C)(C)n1nnnc1C(Nc1cccc2c1OCO2)c1cc2cccc3ccc4cccc1c4c32 (configuration not stated) : what is it?
stdout: 90.5

stdin: Reported growth for "O=S(=O)(NCCCNc1nccc(-c2[nH]c(-c3ccccc3)nc2-c2ccc(Cl)c(O)c2)n1)c1cccc(F)c1" : what is it?
stdout: 68.2

stdin: Reported growth for "CCCCCc1ccc(S(=O)(=O)Nc2cccc(-c3csc(NC(=O)CCCCCN4CCN(C)CC4)n3)c2)cc1" : what is it?
stdout: 79.8

stdin: Reported growth for "COc1cc2oc(-c3cccc(NC(=O)c4cc(N)ccc4Cl)c3)cc(=O)c2c(OC)c1OC" : what is it?
stdout: 100

stdin: Reported growth for "CC1(C)CC[C@]2(C(=O)N3CCOCC3)CC[C@]3(C)C(=CC[C@@H]4[C@@]5(C)C/C(=C/c6ccccn6)C(=O)C(C)(C)[C@@H]5CC[C@]43C)[C@@H]2C1" : what is it?
stdout: 67.7

stdin: Reported growth for "O=C(NNc1nc2cc(F)ccc2n2c(CO)ccc12)c1cnccn1" : what is it?
stdout: 21.5

stdin: Reported growth for "O=c1c2ccccc2nc(COc2ccccc2)n1NS(=O)(=O)c1ccc(Cl)cc1" : what is it?
stdout: 76.6

stdin: Reported growth for "Cc1ccc(-c2nn(-c3ccccc3)cc2/C=C/C(=O)c2ccc(NC(=O)CCCCCCC(=O)NO)cc2)cc1" : what is it?
stdout: 73.5

stdin: Reported growth for "Nc1nc(Nc2ccccc2SSc2ccccc2Nc2nc(N)nc(-c3cccc(Br)c3)n2)nc(-c2cccc(Br)c2)n1" : what is it?
stdout: 63.7

stdin: Reported growth for "COc1cc(-c2nn(C(C)(C)C)cc2-c2ccnc(NCCCNS(=O)(=O)c3ccc(F)cc3)n2)ccc1Cl" : what is it?
stdout: 52.5

stdin: Reported growth for "O=C(NNc1nc2cc(F)cc(F)c2n2cccc12)c1cnccn1" : what is it?
stdout: 25.5

stdin: Reported growth for CC(=O)N(C)C1CCc2c(sc(NC(=O)c3ccc(C(C)(C)C)cc3)c2C(N)=O)C1 (configuration not stated) : what is it?
stdout: 71.1

stdin: Reported growth for "CC/C(=C/c1cc(OC)ccc1O)c1ccc2cc(OC)ccc2[o+]1" : what is it?
stdout: 73.9

Where these numbers come from: PubChem BioAssay (NCI)
